assay_summary: Percent bioavailability was determined in dog by iv/po dose at 5 mg/kg
Assay type: ADME, organism-based, Canis lupus familiaris
test_settings: in vivo
endpoint: bioavailability

Quick one: bioavailability of `COc1cc2c(N3CCN(/C(S)=N\c4ccc(-c5ccccn5)cc4)CC3)ncnc2cc1OCCN1CCCCC1` ? 30.2%

----------
assay_summary: Percent bioavailability was determined in monkey by iv/po dose at 10 mg/kg
Assay type: ADME, organism-based
test_settings: cercopithecidae, in vivo
endpoint: bioavailability (%)
Your answer should be a plain number; it is taken to be in %.

Quick one: bioavailability of `COc1cc2c(N3CCN(/C(S)=N\c4ccc(-c5ccccn5)cc4)CC3)ncnc2cc1OCCN1CCCCC1` ? 68

----------
assay_summary: Maximum concentration was determined in dog by iv/po dose at 5 mg/kg
Type: ADME, organism-based, Canis lupus familiaris
Set-up: dose 5 mg/kg
test_settings: in vivo
endpoint: Cmax (ng/mL)
Your answer should be a plain number; it is taken to be in ng/mL.

Quick one: Cmax of `COc1cc2c(N3CCN(/C(S)=N\c4ccc(-c5ccccn5)cc4)CC3)ncnc2cc1OCCN1CCCCC1` ? 38.9

----------
assay_summary: Maximum concentration was determined in dog by iv/po dose at 8.09 mg/kg
Assay type: ADME, organism-based, Canis lupus familiaris
Set-up: dose 8.09 mg/kg
test_settings: in vivo
endpoint: Cmax (µg/mL)
Your answer should be a plain number; it is taken to be in µg/mL.

Quick one: Cmax of `COc1cc2c(N3CCN(C(=S)NCc4ccc5c(c4)OCO5)CC3)ncnc2cc1OCCN1CCCCC1` ? 0.456

----------
tgt: Platelet-derived growth factor receptor beta (Homo sapiens, UniProt P09619)
Sequence (P09619 whole entry): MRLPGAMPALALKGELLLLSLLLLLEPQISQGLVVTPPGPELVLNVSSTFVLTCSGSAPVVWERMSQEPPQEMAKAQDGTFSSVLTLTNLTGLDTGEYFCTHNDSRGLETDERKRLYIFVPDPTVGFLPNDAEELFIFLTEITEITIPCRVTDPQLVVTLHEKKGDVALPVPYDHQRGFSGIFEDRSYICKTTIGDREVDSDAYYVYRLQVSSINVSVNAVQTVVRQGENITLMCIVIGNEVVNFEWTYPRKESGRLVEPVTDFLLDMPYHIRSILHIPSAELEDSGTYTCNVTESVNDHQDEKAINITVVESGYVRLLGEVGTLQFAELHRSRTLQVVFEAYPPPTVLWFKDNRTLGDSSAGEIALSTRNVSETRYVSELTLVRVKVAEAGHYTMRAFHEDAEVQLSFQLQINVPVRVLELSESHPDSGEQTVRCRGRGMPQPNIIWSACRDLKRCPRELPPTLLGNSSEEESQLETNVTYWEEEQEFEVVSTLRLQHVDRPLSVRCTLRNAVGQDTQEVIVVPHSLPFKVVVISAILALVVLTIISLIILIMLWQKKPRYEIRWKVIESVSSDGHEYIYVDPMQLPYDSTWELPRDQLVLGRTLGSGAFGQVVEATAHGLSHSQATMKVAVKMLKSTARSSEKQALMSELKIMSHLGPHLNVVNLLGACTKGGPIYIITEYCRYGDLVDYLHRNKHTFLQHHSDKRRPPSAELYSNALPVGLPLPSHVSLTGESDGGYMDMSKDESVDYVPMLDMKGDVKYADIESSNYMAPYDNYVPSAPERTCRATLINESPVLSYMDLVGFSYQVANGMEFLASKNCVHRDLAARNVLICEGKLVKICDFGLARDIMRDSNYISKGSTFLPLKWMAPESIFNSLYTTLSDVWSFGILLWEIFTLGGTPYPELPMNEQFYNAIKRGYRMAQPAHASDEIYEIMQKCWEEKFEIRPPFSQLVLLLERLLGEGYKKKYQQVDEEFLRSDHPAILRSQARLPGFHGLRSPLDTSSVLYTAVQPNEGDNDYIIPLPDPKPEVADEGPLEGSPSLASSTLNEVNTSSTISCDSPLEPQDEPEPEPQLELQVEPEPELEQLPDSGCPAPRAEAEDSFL
assay_summary: Inhibition of Platelet derived growth factor receptor beta autophosphorylation in CHO cells
Format: cell-based
endpoint: IC50 (µM)
Your answer should be a plain number; it is taken to be in µM.

Worked examples follow.
>>> endpoint_result("COc1cc2c(N3CCN(/C(S)=N\\Cc4ccc(C(F)(F)F)nc4)CC3)c(C#N)cnc2cc1OCCCN1CCCCC1")
0.01
>>> endpoint_result("COc1cc2c(N3CCN(/C(S)=N\\Cc4ccc(C)o4)CC3)ncnc2cc1OCCCN1CCCCC1")
0.08
>>> endpoint_result("COc1cc2c(N3CCN(C(=S)NCc4ccc(C(F)(F)F)nc4)CC3)ncnc2cc1OCCN1CCCCC1")
0.15
>>> endpoint_result("COc1cc2c(N3CCN(C(=S)NCc4ccc(Cl)nc4)CC3)ncnc2cc1OCCN1CCCCC1")
0.05
>>> endpoint_result("COc1cc2c(N3CCN(/C(S)=N\\c4ccc(-c5ccccn5)cc4)CC3)ncnc2cc1OCCN1CCCCC1")
0.07

Quick one: IC50 of `COc1cc2c(N3CCN(/C(S)=N\Cc4ccc(C)nc4)CC3)ncnc2cc1OCCCN1CCCCC1` ? 0.14

Quick one: IC50 of `COc1cc2c(N3CCN(/C(S)=N\Cc4ccco4)CC3)ncnc2cc1OCCN1CCCC1` ? 0.29

Quick one: IC50 of `COc1cc2c(N3CCN(C(=S)NCc4cnc(C)cn4)CC3)ncnc2cc1OCCN1CCCCC1` ? 0.25

----------
tgt: Platelet-derived growth factor receptor beta (Homo sapiens, UniProt P09619)
assay_summary: In vitro inhibition of Platelet derived growth factor receptor beta autophosphorylation in MG-63 cells with 45% human plasma
Type: cell-based
pIC50: −log10 of the molar value.
Please use YES whenever pIC50 is not below 6, and NO whenever it is.

Check out these entries, answers already filled in.
>>> category_label("COc1cc2c(N3CCN(/C(S)=N\\c4ccc(-c5ccccc5)nc4)CC3)c(C#N)cnc2cc1OCCCN1CCCCC1")
"YES"
>>> category_label("COc1cc2c(N3CCN(C(=S)NCc4cnc(C)cn4)CC3)ncnc2cc1OCCN1CCCCC1")
"YES"
>>> category_label("COc1cc2c(N3CCN(C(=S)NCc4ccc(C(F)(F)F)nc4)CC3)ncnc2cc1OCCN1CCCCC1")
"YES"
>>> category_label("COc1cc2c(N3CCN(C(=S)NCc4ccc(N)nc4)CC3)ncnc2cc1OCCN1CCCCC1")
"NO"
>>> category_label("COc1cc2c(N3CCN(/C(S)=N\\c4ccc(-c5cccc[n+]5[O-])cc4)CC3)ncnc2cc1OCCN1CCCCC1")
"YES"
>>> category_label("COc1cc2c(N3CCN(C(=S)NCc4csc(C)n4)CC3)ncnc2cc1OCCCN1CCCCC1")
"YES"
>>> category_label("COc1cc2c(N3CCN(C(=S)Nc4cccnc4)CC3)ncnc2cc1OCCN1CCCCC1")
"NO"

# check: pIC50 of `COc1cc2c(N3CCN(/C(S)=N\Cc4ccc(C(F)(F)F)nc4)CC3)ncnc2cc1OCCCN1CCOCC1` is greater than or equal to 6 YES

----------
assay_summary: Maximum concentration was determined in rat by iv/po dose at 30 mg/kg
Format: ADME, organism-based
Parameters: dose 30 mg/kg
test_settings: in vivo
endpoint: Cmax (ng/mL)
Your answer should be a plain number; it is taken to be in ng/mL.

>>> endpoint_result("COc1cc2c(N3CCN(C(=S)NCc4ccc5c(c4)OCO5)CC3)ncnc2cc1OCCN1CCCCC1")
146

Please turn your attention to the following entry.
Quick one: Cmax of `COc1cc2c(N3CCN(C(=S)NCc4cnc(C)cn4)CC3)ncnc2cc1OCCN1CCCCC1` ? 239

----------
tgt: Platelet-derived growth factor receptor beta (Homo sapiens, UniProt P09619)
assay_summary: In vitro inhibition of Platelet derived growth factor receptor beta autophosphorylation in MG-63 cells without plasma
Format: cell-based
Reported IC50 values are given for each entry in this list.
Your answer should be a plain number; it is taken to be in nM.

Worked examples follow.
>>> endpoint_result("COc1cc2c(N3CCN(/C(S)=N\\c4ccc(Br)cc4)CC3)ncnc2cc1OCCN1CCCCC1")
1010
>>> endpoint_result("COc1cc2c(N3CCN(C(=S)NCc4ccc(-c5ccccc5)nc4)CC3)c(C#N)cnc2cc1OCCCN1CCCCC1")
10
>>> endpoint_result("COc1cc2c(N3CCN(/C(=N\\Cc4cc(C)on4)NC#N)CC3)ncnc2cc1OCCCN1CCCCC1")
10500
>>> endpoint_result("COc1cc2c(N3CCN(/C(S)=N\\c4ccc(-c5cccc[n+]5[O-])cc4)CC3)ncnc2cc1OCCN1CCCCC1")
800
>>> endpoint_result("COc1cc2c(N3CCN(/C(S)=N\\c4ccsc4)CC3)ncnc2cc1OCCN1CCCCC1")
100
>>> endpoint_result("COc1cc2c(N3CCN(/C(=N\\Cc4ccc5c(c4)OCO5)NC#N)CC3)ncnc2cc1OCCCN1CCCCC1")
320
>>> endpoint_result("COc1cc2c(N3CCN(/C(S)=N\\c4ccc(-c5ccccn5)cc4)CC3)ncnc2cc1OCCN1CCCCC1")
180

Please turn your attention to the following entry.
Quick one: IC50 of `COc1cc2c(N3CCN(C(=S)NCc4ccc5c(c4)OCO5)CC3)ncnc2cc1OCCN1CCCCC1` ? 20

----------
Reported half-life values are given for each entry in this list.
assay_summary: Plasma half life was determined in rat by iv/po dose at 30 mg/kg
Format: ADME, organism-based
Design: dose 30 mg/kg
Your answer should be a plain number; it is taken to be in h.

Quick one: half-life of `COc1cc2c(N3CCN(C(=S)NCc4ccc5c(c4)OCO5)CC3)ncnc2cc1OCCN1CCCCC1` ? 26.7

Quick one: half-life of `COc1cc2c(N3CCN(C(=S)NCc4cnc(C)cn4)CC3)ncnc2cc1OCCN1CCCCC1` ? 14.1

----------
tgt: Platelet-derived growth factor receptor beta (Homo sapiens)
assay_summary: In vitro inhibition of Platelet derived growth factor receptor beta autophosphorylation in MG-63 cells with 45% human plasma
Type: cell-based
The label is class 1 for IC50 below 1000 nM and class 0 for IC50 equal to or exceeding 1000 nM.

Check out these entries, answers already filled in.
>>> category_label("COc1cc2c(N3CCN(/C(S)=N\\Cc4ccco4)CC3)ncnc2cc1OCCN1CCCC1")
"class 1"
>>> category_label("COc1cc2c(N3CCN(C(=S)NCc4ccc(Cl)nc4)CC3)ncnc2cc1OCCCN1CCCCC1")
"class 1"
>>> category_label("COc1cc2c(N3CCN(/C(S)=N\\Cc4ccc(C(F)(F)F)nc4)CC3)c(C#N)cnc2cc1OCCCN1CCCCC1")
"class 1"
>>> category_label("COc1cc2c(N3CCN(/C(S)=N\\Cc4ccc(C(F)(F)F)nc4Cl)CC3)ncnc2cc1OCCN1CCCCC1")
"class 0"

In the following, a different compound is considered.
Determine if `COc1cc2c(N3CCN(/C(S)=N\c4nccs4)CC3)ncnc2cc1OCCN1CCCCC1` shows IC50 strictly lower than 1000 nM. class 0

----------
assay_summary: Maximum concentration was determined in rat by iv/po dose at 10 mg/kg
Assay type: ADME, organism-based
Design: dose 10 mg/kg
test_settings: in vivo
endpoint: Cmax (ng/mL)
Your answer should be a plain number; it is taken to be in ng/mL.

Quick one: Cmax of `COc1cc2c(N3CCN(/C(S)=N\c4ccc(-c5ccccn5)cc4)CC3)ncnc2cc1OCCN1CCCCC1` ? 34.1
